Can you tell me TGI for the items I'm about to list?
# Test system: HCT-15 colon
# Experiment summary: NCI tumour cell line growth inhibition, 48 h

Use these answered entries as a reference point.
N=C(N)N=Nc1ccc(NN=C(N)N)c2c1ncc1c2nc2sccn21 ... 59.3 µM
COc1ccc2[nH]c(-c3ccccc3)c(/C=C(\C#N)S(=O)(=O)c3ccccc3)c2c1 ... > 100 µM
O=C1CCCCCCCCCCC(=O)N2CCOCCOCCN1Cc1cccc(n1)C2 ... > 100 µM

Please state TGI for every compound in the list that follows.
1. COc1ccc(C(N)=O)c(OC)c1OCc1ccccc1
2. CCN(CC)CCOc1ccc(N2C(=O)c3cccc4cc([N+](=O)[O-])cc(c34)C2=O)cc1
3. S=C(S)N1CCN(c2cccc(Cl)c2)CC1
4. O=C1C2C(C(=O)N1c1ccccc1)C1(Br)c3ccccc3C2(Br)C2C(=O)N(c3ccccc3)C(=O)C21 (stereo not given)
5. COc1ccccc1/C=C1\Sc2scc(-c3ccc(O)c(O)c3)[n+]2C1=O
6. CSc1ncc2c(n1)-c1ccccc1OC2N1CCCCC1 (stereo not given)
7. Nc1ccc(C(c2ccccc2)(c2ccccc2)c2ccccc2)cc1

1: > 100 µM; 2: 26.1 µM; 3: > 100 µM; 4: > 31.6 µM; 5: 30.6 µM; 6: 84.5 µM; 7: > 100 µM

Please state TGI for every compound in the list that follows.
1. C(#Cc1cnccn1)/C=C\C#Cc1cnccn1
2. Cc1ccc2nc(-c3ccc(N)c(Br)c3)sc2c1

10.6 µM
> 100 µM

Please state TGI for every compound in the list that follows.
1. N#C/C(=C\c1ccccc1)c1nc(-c2cc3ccccc3oc2=O)cs1
2. CC1CC2OC(=O)CC2C[C@@H]1O[Si](C)(C)C(C)(C)C (stereo not given in full)
3. CN1C2CCC1CC(CC(=O)NC(c1ccc(F)cc1)c1ccc(F)cc1)C2 (stereo not given)
4. COc1ccc(C2[C@H]3C(=O)N(c4ccc(Cc5ccc(N6C(=O)[C@@H]7ON(c8ccccc8)C(c8ccc(OC)cc8)[C@@H]7C6=O)cc5)cc4)C(=O)[C@H]3ON2c2ccccc2)cc1 (stereo not given in full)
5. O=C(COc1ccc(/C=C/C(=O)c2ccc(Cl)cc2)cc1)Nc1c(Cl)cccc1Cl
6. COc1nc(N)c(C#N)c(C#N)c1C#N

1: > 100 µM; 2: > 100 µM; 3: > 100 µM; 4: > 100 µM; 5: > 100 µM; 6: > 10 µM

Please state TGI for every compound in the list that follows.
1. O=C(NC(=S)Nc1ccccc1)c1ccc([N+](=O)[O-])cc1
2. O=c1[nH]c(=O)n(C2CC(O)C(CO)O2)c2nc3cc4ccccc4cc3nc12 (stereo not given)
3. O=C1C=CC(=O)N1C1CCCCCCCCCCC1
4. CC(=O)NCCc1c(-c2[nH]c3ccccc3c2CCNC(C)=O)[nH]c2ccccc12
5. COc1ccc2cc1Oc1ccc(cc1)CC1c3cc4c(cc3CCN1C)Oc1c(OC)cc3c(c1O4)C(C2)N(C)CC3 (stereo not given)
6. Cc1cc2[nH]c(Cl)c(/C=C3\C(=O)Nc4ccccc43)c2cc1O

1: > 100 µM; 2: > 100 µM; 3: 14.9 µM; 4: > 100 µM; 5: 5.82 µM; 6: 23.3 µM

Please state TGI for every compound in the list that follows.
1. O=C1NC2C(=O)N(Cc3ccccc3)C(=O)C2N1 (stereo not given)
2. Nc1nc(SCCC/C=C/B(O)O)nc2c1ncn2C1OC(COP(=O)(O)O)C(O)C1O (stereo not given)
3. CNC(=S)Nc1sc2c(c1C#N)CCCC2
4. Nc1nc(-c2ccccc2)c(Cl)c(-c2cc(Cl)ccc2O)n1
5. Nc1nc(/C=C\c2ccc([N+](=O)[O-])cc2)nc(N2CCN(c3ccccc3)CC2)n1
6. CCn1cc(C(=O)O)c(=O)c2cc(F)c(N3CCN(S(=O)(=O)c4ccc(Cl)cc4)CC3)cc21

1: > 100 µM; 2: > 203 µM; 3: > 75 µM; 4: > 100 µM; 5: > 100 µM; 6: > 100 µM
